test: Drug metabolism in Wistar rat liver microsomes at 50 ug/ml after 10 mins; type: ADME; details: read-out: Drug metabolism
PARAMETER: metabolised at 10 min, 50 ug/ml (%)

[2H]C1([2H])C(NC(=O)N(CCCl)N=O)C([2H])([2H])C([2H])([2H])C([2H])([2H])C1([2H])[2H] = 69.5
O=NN(CCCl)C(=O)NC1CCCCC1 = 72.5

* * *

experiment: Antitumor activity against mouse TLX5 cells allografted in mouse assessed as increase in host survival time at 10 mg/kg relative to control; format: functional, TLX-5
PARAMETER: Activity (%)

[2H]C1([2H])CC(NC(=O)N(CCCl)N=O)CC([2H])([2H])C1([2H])[2H] = 38.1
O=NN(CCCl)C(=O)NC1CCCCC1 [LOMUSTINE] = 54
[2H]C1([2H])C(NC(=O)N(CCCl)N=O)C([2H])([2H])C([2H])([2H])C([2H])([2H])C1([2H])[2H] = 20
[2H]C1([2H])CCCC([2H])([2H])C1NC(=O)N(CCCl)N=O = 63.6

* * *

tested on: Liver microsome; assay: Retention time in Wistar rat liver microsomes at 50 ug/ml after 10 mins by HPLC analysis; format: ADME
Retention_time values for the molecules below.
PARAMETER: Retention_time (min)

O=NN(CCCl)C(=O)N[C@H]1CC[C@H](O)CC1 = 16.9
O=NN(CCCl)C(=O)N[C@H]1CCCC[C@H]1O = 2.8
O=NN(CCCl)C(=O)N[C@H]1CCCC[C@@H]1O = 3.8
O=NN(CCCl)C(=O)N[C@H]1CC[C@@H](O)CC1 = 9.6

* * *

metabolised at 20 min, 50 ug/ml values for the compounds below.
test: Drug metabolism in Wistar rat liver microsomes at 50 ug/ml after 20 mins; type: ADME; settings: read-out: Drug metabolism
PARAMETER: metabolised at 20 min, 50 ug/ml (%)

[2H]C1([2H])C(NC(=O)N(CCCl)N=O)C([2H])([2H])C([2H])([2H])C([2H])([2H])C1([2H])[2H] = 91.9
O=NN(CCCl)C(=O)NC1CCCCC1 [LOMUSTINE] = 91.8

* * *

tested on: Liver microsome; assay: Retention time in Wistar rat liver microsomes at 50 ug/ml after 10 mins by HPLC analysis; format: ADME
PARAMETER: Retention time (min)

O=NN(CCCl)C(=O)N[C@H]1CCC[C@@H](O)C1 = 7.8
O=NN(CCCl)C(=O)N[C@H]1CCC[C@H](O)C1 = 7.1

* * *

system: Liver microsome; assay: Drug metabolism in Wistar rat liver microsomes assessed as recovered total OH-CCNU derivatives level at 2.8 mg after 10 mins by HPLC analysis; assay type: ADME; conditions: in vitro
Drug metabolism values for the molecules below.
PARAMETER: Drug metabolism

O=NN(CCCl)C(=O)NC1CCCCC1 [LOMUSTINE] = 1230 µg
[2H]C1([2H])C(NC(=O)N(CCCl)N=O)C([2H])([2H])C([2H])([2H])C([2H])([2H])C1([2H])[2H] = 911 µg
[2H]C1([2H])CCCC([2H])([2H])C1NC(=O)N(CCCl)N=O = 1089 µg
[2H]C1([2H])CC(NC(=O)N(CCCl)N=O)CC([2H])([2H])C1([2H])[2H] = 994 µg

* * *

experiment: Drug metabolism in Wistar rat liver microsomes at 50 ug/ml after 2.5 mins; assay type: ADME; conditions: read-out: Drug metabolism
PARAMETER: metabolised at 2.5 min, 50 ug/ml (%)

O=NN(CCCl)C(=O)NC1CCCCC1 = 26.8
[2H]C1([2H])C(NC(=O)N(CCCl)N=O)C([2H])([2H])C([2H])([2H])C([2H])([2H])C1([2H])[2H] = 16.1

* * *

metabolised at 5 min, 50 ug/ml values for the compounds below.
experiment: Drug metabolism in Wistar rat liver microsomes at 50 ug/ml after 5 mins; assay type: ADME; details: read-out: Drug metabolism
PARAMETER: metabolised at 5 min, 50 ug/ml

[2H]C1([2H])C(NC(=O)N(CCCl)N=O)C([2H])([2H])C([2H])([2H])C([2H])([2H])C1([2H])[2H] = 38.3%
O=NN(CCCl)C(=O)NC1CCCCC1 [LOMUSTINE] = 47.9%
